# Test system: Cryptococcus neoformans ATCC 66031
# RUN DESCRIPTION: microbe, parasite or virus in culture
# Type: cell-based
# EXPERIMENTAL SETUP: ATCC 66031, pH 5.5; read-out: Minimal inhibitory concentrations, C. Neofor. Without serum
Non-standard residues stand in square brackets, D forms with d. Residues, ends and D or L forms follow the SMILES beside them. *: point of attachment. Lauroyl = CCCCCCCCCCCC(=O)*
MEASURED QUANTITY: MIC

Can you look up MIC on Cryptococcus neoformans ATCC 66031 for CCCCCCCCCCCC(=O)N[C@H](CC(C)C)C(=O)N[C@@H](CCCCN)C(=O)N[C@@H](CCCCN)C(=O)N[C@H](CC(C)C)C(=O)N[C@H](CC(C)C)C(=O)N[C@@H](CCCCN)C(=O)N[C@@H](CCCCN)C(=O)N[C@H](CC(C)C)C(=O)N[C@H](CC(C)C)C(=O)N[C@@H](CCCCN)C(=O)N[C@@H](CCCCN)C(=O)N[C@H](CC(C)C)C(N)=O [lipopeptide 22] (Lauroyl-[dL]KK[dL][dL]KK[dL][dL]KK[dL]-NH2) ? <0.78 µM

Kindly state the measured MIC obtained for CCCCCCCCCCCC(=O)N[C@H](CC(C)C)C(=O)N[C@@H](CCCCN)C(=O)N[C@@H](Cc1c[nH]cn1)C(=O)N[C@H](CC(C)C)C(=O)N[C@H](CC(C)C)C(=O)N[C@@H](CCCCN)C(=O)N[C@@H](Cc1c[nH]cn1)C(=O)N[C@H](CC(C)C)C(=O)N[C@H](CC(C)C)C(=O)N[C@@H](CCCCN)C(=O)N[C@@H](Cc1c[nH]cn1)C(=O)N[C@H](CC(C)C)C(N)=O [lipopeptide 28] (Lauroyl-[dL]KH[dL][dL]KH[dL][dL]KH[dL]-NH2) with Cryptococcus neoformans ATCC 66031. <0.78 µM

Recorded MIC for CCCCCCCCCCCC(=O)N[C@H](CC(C)C)C(=O)N[C@@H](CCCNC(=N)N)C(=O)N[C@@H](CCCNC(=N)N)C(=O)N[C@H](CC(C)C)C(=O)N[C@H](CC(C)C)C(=O)N[C@@H](CCCNC(=N)N)C(=O)N[C@@H](CCCNC(=N)N)C(=O)N[C@H](CC(C)C)C(=O)N[C@H](CC(C)C)C(=O)N[C@@H](CCCNC(=N)N)C(=O)N[C@@H](CCCNC(=N)N)C(=O)N[C@H](CC(C)C)C(N)=O [lipopeptide 25] (Lauroyl-[dL]RR[dL][dL]RR[dL][dL]RR[dL]-NH2) with Cryptococcus neoformans ATCC 66031, please? <0.78 µM
